Here the recorded shrunken log2 fold change is given for each entry.
system: Escherichia coli TOP10; assay: shrunken log2 fold change of peptide-encoding DNA abundance (4.5 h post-induction vs induction); higher = less antimicrobial activity (less host growth inhibition); conditions: time post-induction: 4.5 h; library: site-saturation at positions 5, 18, 19, 20
Field format: numeric only.

get_value(item= RRIRHRPPRLPRPRPRPAYDPRP , readout=shrunken log2 fold change) returns -0.265

The measured shrunken log2 fold change associated with RRIRLRPPRLPRPRPRPQFWPRP reads 0.099

Note to self: shrunken log2 fold change recorded for RRIRGRPPRLPRPRPRPHGRPRP was 0.182

RRIRPRPPRLPRPRPRPHEVPRP yielded shrunken log2 fold change of -0.0664

Field shrunken log2 fold change (entry RRIRDRPPRLPRPRPRPELEPRP ) reads 0.05

* * *

# shrunken log2 fold change annotations
system: Escherichia coli TOP10; assay: shrunken log2 fold change of peptide-encoding DNA abundance (4.5 h post-induction vs induction); higher = less antimicrobial activity (less host growth inhibition); conditions: time post-induction: 4.5 h; library: site-saturation at positions 5, 18, 19, 20

// below: answered sequences
Sequence record: RRIRGRPPRLPRPRPRPILIPRP
shrunken log2 fold change: 0.191
--
Sequence record: RRIRTRPPRLPRPRPRPKNSPRP
shrunken log2 fold change: -0.438

Kindly consider the entry below.
// RRIRRRPPRLPRPRPRPRMDPRP : shrunken log2 fold change value = 2.27

* * *

system: Escherichia coli TOP10; experiment: shrunken log2 fold change of peptide-encoding DNA abundance (4.5 h post-induction vs induction); higher = less antimicrobial activity (less host growth inhibition); settings: time post-induction: 4.5 h; library: site-saturation at positions 5, 18, 19, 20
Reported shrunken log2 fold change is given for each of the following sequences.
Lab note: jot down the number only; don't add units.

Example entries begin here.
Sequence record: RRIRLRPPRLPRPRPRPMHNPRP
shrunken log2 fold change: -0.429

Sequence record: RRIRIRPPRLPRPRPRPQPEPRP
shrunken log2 fold change: 0.0576

Sequence record: RRIRWRPPRLPRPRPRPGQRPRP
shrunken log2 fold change: 0.153

Sequence record: RRIRGRPPRLPRPRPRPCFAPRP
shrunken log2 fold change: 0.789

Sequence record: RRIRMRPPRLPRPRPRPVLYPRP
shrunken log2 fold change: -0.0553

In plain terms, RRIRQRPPRLPRPRPRPCWNPRP has a documented shrunken log2 fold change of -0.13

// sample RRIRWRPPRLPRPRPRPIKAPRP , its shrunken log2 fold change was 0.00489

Value of measured shrunken log2 fold change for the entry RRIRSRPPRLPRPRPRPAYRPRP : -0.154

Briefly, shrunken log2 fold change measured for RRIRGRPPRLPRPRPRPIHVPRP : -0.315

* * *

system: Escherichia coli TOP10; test: shrunken log2 fold change of peptide-encoding DNA abundance (4.5 h post-induction vs induction); higher = less antimicrobial activity (less host growth inhibition); conditions: time post-induction: 4.5 h; library: site-saturation at positions 5, 18, 19, 20
// reported shrunken log2 fold change per item
Respond with the number and no other words.

The sequence RRIRCRPPRLPRPRPRPSNSPRP showed shrunken log2 fold change equal to -0.644

shrunken log2 fold change measured on RRIRIRPPRLPRPRPRPATPPRP = 0.0979

Looking up RRIRPRPPRLPRPRPRPVVVPRP , I see its shrunken log2 fold change listed as -0.0997

Reported shrunken log2 fold change ( RRIRKRPPRLPRPRPRPPSPPRP ) = 0.588

* * *

system: Escherichia coli TOP10; experiment: shrunken log2 fold change of peptide-encoding DNA abundance (4.5 h post-induction vs induction); higher = less antimicrobial activity (less host growth inhibition); conditions: time post-induction: 4.5 h; library: site-saturation at positions 5, 18, 19, 20
Below: a set of entries, each annotated with reported shrunken log2 fold change.
// return just the number, without any unit appended

Sequence record: RRIRDRPPRLPRPRPRPGSVPRP
Test value: 0.113

Sequence record: RRIRLRPPRLPRPRPRPNFSPRP
Test value: -0.00932

Sequence record: RRIRQRPPRLPRPRPRPGYKPRP
Test value: -0.0992

Sequence record: RRIRTRPPRLPRPRPRPTNKPRP
Test value: -0.444

Sequence record: RRIRNRPPRLPRPRPRPFCGPRP
Test value: -0.108

Note: attention shifts to another entry.
What the record says about RRIRNRPPRLPRPRPRPPLRPRP : shrunken log2 fold change is 0.138

* * *

system: Escherichia coli TOP10; assay: shrunken log2 fold change of peptide-encoding DNA abundance (4.5 h post-induction vs induction); higher = less antimicrobial activity (less host growth inhibition); settings: time post-induction: 4.5 h; library: site-saturation at positions 5, 18, 19, 20
# shrunken log2 fold change annotations
I only need the number, thanks.

# example entries with known answers
Sequence record: RRIRIRPPRLPRPRPRPDKNPRP
Test value: -0.673
//
Sequence record: RRIRRRPPRLPRPRPRPYQEPRP
Test value: -0.259
//
Sequence record: RRIRKRPPRLPRPRPRPATKPRP
Test value: 0.253
//
Sequence record: RRIRSRPPRLPRPRPRPFHWPRP
Test value: -0.108
//
Sequence record: RRIRHRPPRLPRPRPRPVWVPRP
Test value: -0.0634
//
Sequence record: RRIRCRPPRLPRPRPRPGDAPRP
Test value: 0.466

Reported shrunken log2 fold change of RRIRVRPPRLPRPRPRPHLDPRP : 0.0818

Recorded shrunken log2 fold change (sequence RRIRERPPRLPRPRPRPHDKPRP ): -0.784

* * *

test system: Escherichia coli TOP10; assay: shrunken log2 fold change of peptide-encoding DNA abundance (4.5 h post-induction vs induction); higher = less antimicrobial activity (less host growth inhibition); settings: time post-induction: 4.5 h; library: site-saturation at positions 5, 18, 19, 20
Parameter: shrunken log2 fold change
Lab note: jot the number down without any unit.

// shrunken log2 fold change lookup, sequence = RRIRIRPPRLPRPRPRPMDWPRP , result: 0.0118

The reported value for RRIRKRPPRLPRPRPRPGWAPRP in terms of shrunken log2 fold change is 1.04

Recorded shrunken log2 fold change (sequence RRIRMRPPRLPRPRPRPNWPPRP ): 0.096

Recorded shrunken log2 fold change (sequence RRIRFRPPRLPRPRPRPMWGPRP ): -0.136

For record RRIRDRPPRLPRPRPRPEPMPRP the listed shrunken log2 fold change is 0.035

So for RRIRMRPPRLPRPRPRPQQRPRP , the logged shrunken log2 fold change turned out to be 0.586

Notebook: RRIRKRPPRLPRPRPRPRYNPRP , shrunken log2 fold change read as -0.312

* * *

test system: Escherichia coli TOP10; experiment: shrunken log2 fold change of peptide-encoding DNA abundance (4.5 h post-induction vs induction); higher = less antimicrobial activity (less host growth inhibition); details: time post-induction: 4.5 h; library: site-saturation at positions 5, 18, 19, 20
Given measured shrunken log2 fold change, output met if it is greater than or equal to -0.08 and not met if not.

Sequence record: RRIRVRPPRLPRPRPRPDQNPRP
Answer label: not met

With those in mind, consider the next sequence.
Data request: Test whether the sequence RRIRYRPPRLPRPRPRPRNYPRP records shrunken log2 fold change of -0.08 or higher.
Data returned: not met

* * *

tested on: Escherichia coli TOP10; assay: shrunken log2 fold change of peptide-encoding DNA abundance (4.5 h post-induction vs induction); higher = less antimicrobial activity (less host growth inhibition); conditions: time post-induction: 4.5 h; library: site-saturation at positions 5, 18, 19, 20
Label 0 (no) if shrunken log2 fold change falls below -0.009; label 1 (yes) in every other case.

Sample answers from the record:
Sequence record: RRIRSRPPRLPRPRPRPAQTPRP
Study target: Escherichia coli TOP10
Answer label: 1 (yes)
//
Sequence record: RRIRYRPPRLPRPRPRPFSGPRP
Study target: Escherichia coli TOP10
Answer label: 1 (yes)
//
Sequence record: RRIRCRPPRLPRPRPRPGTPPRP
Study target: Escherichia coli TOP10
Answer label: 1 (yes)
//
Sequence record: RRIRGRPPRLPRPRPRPSNLPRP
Study target: Escherichia coli TOP10
Answer label: 0 (no)
//
Sequence record: RRIRQRPPRLPRPRPRPAFTPRP
Study target: Escherichia coli TOP10
Answer label: 0 (no)
//
Sequence record: RRIRWRPPRLPRPRPRPDYQPRP
Study target: Escherichia coli TOP10
Answer label: 0 (no)
//
Sequence record: RRIRRRPPRLPRPRPRPLNMPRP
Study target: Escherichia coli TOP10
Answer label: 0 (no)

Data request: # bool: shrunken log2 fold change of RRIRERPPRLPRPRPRPVIMPRP >= -0.009
Data returned: 0 (no)

* * *

test system: Escherichia coli TOP10; assay: shrunken log2 fold change of peptide-encoding DNA abundance (4.5 h post-induction vs induction); higher = less antimicrobial activity (less host growth inhibition); details: time post-induction: 4.5 h; library: site-saturation at positions 5, 18, 19, 20;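 note: peptides expressed intracellularly from a pBAD plasmid library in pooled LB shake-flask culture, induced with 0.3% L-arabinose, DNA abundance read by NGS, three biological replicates, DESeq2 with apeglm shrinkage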
Attribute: shrunken log2 fold change
Give the figure only, with no unit attached.

Sequence record: RRIRKRPPRLPRPRPRPYKFPRP
Test value: -0.0374

Value (shrunken log2 fold change, Escherichia coli TOP10) for record RRIRHRPPRLPRPRPRPPRHPRP = 0.231

# shrunken log2 fold change measured on Escherichia coli TOP10 for item RRIRGRPPRLPRPRPRPIDGPRP = 0.245

Source listed as the supplement of paper PMC9112550.
